Catalogue of OD490 readings, one per entry.
Target: T1, ACVR2B-Fc fusion protein (human, UniProt Q13705 19-137)
T1 construct: also called water-soluble ACVR2B
T1 sequence: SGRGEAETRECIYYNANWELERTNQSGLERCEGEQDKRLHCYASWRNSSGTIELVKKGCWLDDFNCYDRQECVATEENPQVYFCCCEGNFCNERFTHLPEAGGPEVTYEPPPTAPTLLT
Test: phage ELISA, ACVR2B coated
Experimental: Colonies obtained from a group of the polyclonal phage antibodies having high binding capacity were cultured at a temperature of 37° C. for 16 hours in a 96-deep well plate (Bioneer 90030) containing 1 ml of a medium supplemented with 2×YTCM, 2% glucose, and 5 mM MgCl₂. […] Each well was washed with […] of PBS-Tween 20, colorimetrically developed, and then measured for optical density at 490 nm.
property_measured: OD490

1) ACVR2B D11 (monoclonal scFv-phage) (scFv, V domains shown) VH: MQLVQSGGGLVQPGRSLGLSCTASGFTFGDYAMSWVRQAPGKGLEWVGFIRSKAYGGTTEYAASVKGRLTISRDDSKSIAYLQMNSLRAEDTAVYYCARGHYGMDVWGQGTTVTVSS VL: DIQMTQSPSSLSASVGDRVTITCRASQNISNFLNWYQQKPGKAPKLLIYSASRLQRGVPSRFSGSGSGTDFTLTISSLQPEDFATYYCQQSYSTPYTFGQGTKLEIK	3.05 OD
2) ACVR2B A09 (monoclonal scFv-phage) (scFv, V domains shown, also called A9) VH: VQLVESGGGLVQPGRSLRLSCAASGFTFDSYWMSWVRQAPGKGLEWVANIKYDGSEKHYMDSVKGRFTISRDNAKNSVYLQMNSLRAEDTAVYYCAKGAWLDYWGQGTQVTVSS VL: IQMTQSPSAMSASVGDRVTITCRASQGISNYLAWFQQKPGKVPKRLIYAASSLQSGVPSRFSGSGSGTGFTLTITSLQPEDFATYYCLQHKSYPYTFGQGTKLEIK	2.18 OD
3) ACVR2B A06 (monoclonal scFv-phage) (scFv, V domains shown, also called A6) VH: VQLVQSGGGLVQPGRSLRLSCTASGFTFGDYAMSWVRQAPGKGLEWVGFIRSKRYDGTAEYAASVKGRFTISRDDSKNSLYLQMNSLRAEDTAVYYCARGHYAMDVWGQGTTVTVSS VL: DIQMTQSPSSLSASVGDRVTITCRASRSISNYLNWYQQKPGKAPKLLIYAASSLQSGVPSRFSGSGSGTDFTLTISSLQPEDFATYYCQQSYDTPFTFGLGNQLEIK	2.96 OD
